The measurements presented in this section are drawn from patent US20250051347A1.

Reported DC50 by item:
ASSAY_SYSTEM: androgen receptor (AR) splicing variant AR-v7 (Homo sapiens)
Construct: The degradation activity of compounds on AR-v7 in 22RV1 cells; host or cells: 22RV1 cells
Sequence (P10275 1-644 isoform P10275-3): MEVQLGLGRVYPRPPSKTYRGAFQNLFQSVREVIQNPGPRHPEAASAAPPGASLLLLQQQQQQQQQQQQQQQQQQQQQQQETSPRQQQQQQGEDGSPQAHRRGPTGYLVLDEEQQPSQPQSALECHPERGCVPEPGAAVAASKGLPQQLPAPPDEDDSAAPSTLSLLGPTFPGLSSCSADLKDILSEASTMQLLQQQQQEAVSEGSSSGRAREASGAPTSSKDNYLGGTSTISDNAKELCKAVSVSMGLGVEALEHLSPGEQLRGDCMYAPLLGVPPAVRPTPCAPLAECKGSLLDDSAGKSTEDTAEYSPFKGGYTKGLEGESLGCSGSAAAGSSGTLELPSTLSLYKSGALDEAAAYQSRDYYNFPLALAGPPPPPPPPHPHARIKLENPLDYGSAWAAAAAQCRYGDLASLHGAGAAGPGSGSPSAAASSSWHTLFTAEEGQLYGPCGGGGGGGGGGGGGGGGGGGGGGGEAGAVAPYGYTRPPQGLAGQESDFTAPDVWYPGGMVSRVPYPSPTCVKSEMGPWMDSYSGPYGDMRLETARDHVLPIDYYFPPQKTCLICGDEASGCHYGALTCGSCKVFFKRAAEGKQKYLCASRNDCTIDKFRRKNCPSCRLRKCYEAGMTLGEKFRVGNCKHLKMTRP
MEASUREMENT_DESCRIPTION: Degradation activity on androgen receptor splicing variant AR-v7 in 22RV1 cells (ELISA)
Type: cell-based
MEASUREMENT_CONTEXT: AR-v7 degradation in 22RV1 cells, 48 h, numeric values

>>> result("CC(=O)c1nccc(COc2ccc(C(C)(C)c3ccc(OCCCCCCCCOCC4CN(c5ccc6c(c5)C(=O)N(C5CCC(=O)NC5=O)C6=O)C4)cc3)cc2)n1 (stereo not drawn)")
"> 10 µM"
>>> result("CC(=O)c1nccc(COc2ccc(C(C)(C)c3ccc(OC4CN(c5ccc6c(c5)C(=O)N(C5CCC(=O)NC5=O)C6=O)C4)cc3)cc2)n1 (stereo not drawn)")
"> 10 µM"

Now for another entry.
Provide only the value of recorded DC50 for C=CC(=O)Nc1nccc(COc2ccc(C(C)(C)c3ccc(OCCCCCCCCOCCN4CCN(c5ccc6c(c5)C(=O)N(C5CCC(=O)NC5=O)C6=O)CC4)cc3)cc2)n1 (stereo not drawn) > 10 µM
